Ref: patent US9113629B2

Tested on: Key Broadleaf Weed and Crop Species
Experimental protocol: Post-emergent Test II herbicidal activity (Table 5)
Assay type: in vivo
Details: post-emergence, 336 h; ABUTH: velvetleaf (Abutilon theophrasti); application rate 140 g ai/ha; 14 days after application; read-out: Visual Growth Reduction (%) 14 Days After Application, ABUTH
Excerpt: Post-emergent Test II: Seeds or nutlets of the desired test plant species were planted in Sun Gro Metro-Mix® 360 planting mixture, which typically has a pH of 6.0 to 6.8 and an organic matter content of about 30 percent, in plastic pots with a surface area of 64 square centimeters. When required to ensure good germination and healthy plants, a fungicide treatment and/or other chemical or physical treatment was applied. […]
Listed below: pest or weed control at 140 g/ha values for each entry.

Name the recorded pest or weed control at 140 g/ha of the compound listed here: `COC(=O)c1nc(-c2ccc(I)c(F)c2F)nc(N)c1OC`
95 to 100%

Name the recorded pest or weed control at 140 g/ha of the compound listed here: `COC(=O)c1nc(-c2ccc(I)c(F)c2F)c(F)c(N)c1Cl`
95 to 100%

Name the recorded pest or weed control at 140 g/ha of the compound listed here: `COC(=O)c1nc(-c2ccc(C#N)c(F)c2)c(F)c(N)c1Cl`
95 to 100%

Name the recorded pest or weed control at 140 g/ha of the compound listed here: `N#Cc1ccc(-c2nc(C(=O)O)c(Cl)c(N)c2F)cc1F`
75 to 84%

Name the recorded pest or weed control at 140 g/ha of the compound listed here: `COC(=O)c1nc(-c2ccc(OC(F)F)cc2)c(F)c(N)c1Cl`
95 to 100%

Name the recorded pest or weed control at 140 g/ha of the compound listed here: `COC(=O)c1nc(-c2ccc(I)cc2)nc(N)c1OC`
75 to 84%

Name the recorded pest or weed control at 140 g/ha of the compound listed here: `COC(=O)c1ccc(-c2nc(C(=O)OC)c(Cl)c(N)c2F)cc1`
0 to 29%

Name the recorded pest or weed control at 140 g/ha of the compound listed here: `Nc1c(F)c(-c2ccc(I)cc2)nc(C(=O)O)c1Cl`
95 to 100%

Name the recorded pest or weed control at 140 g/ha of the compound listed here: `C#Cc1ccc(-c2nc(C(=O)O)c(Cl)c(N)c2F)cc1F`
45 to 59%

###

Test system: test plant species in Direct Seeded Rice
Experimental protocol: Postemergence herbicidal activity in direct seeded rice (Table 13)
Assay type: in vivo
Details: BRAPP: broadleaf signalgrass, Brachiaria platyphylla; probit analysis
# note: boundary value 4 g ai/ha maps to N; GR50 BRAPP below it maps to Y

Examples with answers:
{"columns": ["Test smiles", "Cat"],
 "data": [
  ["COC(=O)c1nc(-c2ccc(Cl)c(F)c2)c(F)c(N)c1Cl", "N"],
  ["Nc1c(Cl)c(C(=O)O)nc(-c2ccc(C(F)(F)F)c(F)c2)c1Cl", "N"],
  ["COC(=O)c1nc(-c2ccc(I)cc2)c(Cl)c(N)c1Cl", "N"],
  ["COC(=O)c1nc(-c2ccc(Br)cc2F)cc(N)c1Cl", "Y"],
  ["COC(=O)c1nc(-c2ccc(C(F)(F)F)c(F)c2)c(Cl)c(N)c1Cl", "N"]
]}

A record lists `Nc1c(F)c(-c2ccc(Cl)c(F)c2)nc(C(=O)O)c1Cl` . Is its GR50 BRAPP below 4 g ai/ha?
Y

###

System: Key Broadleaf Weed and Crop Species
Experimental protocol: Post-emergent Test II herbicidal activity (Table 5)
Format: in vivo
Details: post-emergence, 336 h; BRSNN: oilseed-rape, canola (Brassica napus); application rate 140 g ai/ha; 14 days after application; read-out: Visual Growth Reduction (%) 14 Days After Application, BRSNN
Listed below: pest or weed control at 140 g/ha values for each entry.

Worked cases, answers included:
{"columns": ["Test smiles", "pest or weed control at 140 g/ha"],
 "data": [
  ["COC(=O)c1nc(-c2ccc(C#N)c(F)c2F)c(F)c(N)c1Cl", "0 to 29%"],
  ["COC(=O)c1nc(-c2ccc(Br)cc2)cc(N)c1Cl", "60 to 74%"],
  ["COC(=O)c1nc(-c2ccc(C(F)(F)F)c(F)c2)nc(N)c1OC", "30 to 44%"]
]}

Now for another entry.
Name the recorded pest or weed control at 140 g/ha of the molecule listed here: `Nc1c(F)c(-c2ccc(OC(F)F)c(F)c2F)nc(C(=O)O)c1Cl`
60 to 74%

###

Test system: Key Broadleaf Weed and Crop Species
Experimental protocol: Post-emergent Test II herbicidal activity (Table 5)
Type: in vivo
Details: post-emergence, 336 h; AMARE: redroot pigweed (Amaranthus retroflexus); application rate 140 g ai/ha; 14 days after application; read-out: Visual Growth Reduction (%) 14 Days After Application, AMARE
Listed below: pest or weed control at 140 g/ha values for each entry.

{"columns": ["Test smiles", "Experimental target", "Observed"],
 "data": [
  ["COC(=O)c1nc(-c2ccc(I)c(F)c2F)nc(N)c1OC", "Key Broadleaf Weed and Crop Species", "85 to 94%"]
]}

Name the recorded pest or weed control at 140 g/ha of the compound listed here: `Nc1cc(-c2ccc(I)c(F)c2F)nc(C(=O)O)c1Cl`
95 to 100%

Name the recorded pest or weed control at 140 g/ha of the compound listed here: `COC(=O)c1nc(-c2ccc(C(F)F)cc2)c(F)c(N)c1Cl`
95 to 100%

Name the recorded pest or weed control at 140 g/ha of the compound listed here: `C#Cc1ccc(-c2nc(N)c(OC)c(C(=O)OC)n2)c(F)c1`
0 to 29%

Name the recorded pest or weed control at 140 g/ha of the compound listed here: `COC(=O)c1nc(-c2ccc(C#N)c(F)c2F)c(F)c(N)c1Cl`
95 to 100%

Name the recorded pest or weed control at 140 g/ha of the compound listed here: `Nc1cc(-c2ccc(C(F)(F)F)c(F)c2F)nc(C(=O)O)c1Cl`
95 to 100%

Name the recorded pest or weed control at 140 g/ha of the compound listed here: `COC(=O)c1nc(-c2ccc(OC(F)F)cc2)c(F)c(N)c1Cl`
95 to 100%

Name the recorded pest or weed control at 140 g/ha of the compound listed here: `COC(=O)c1nc(-c2ccccc2)c(F)c(N)c1Cl`
95 to 100%

Name the recorded pest or weed control at 140 g/ha of the compound listed here: `Nc1c(F)c(-c2ccc(OC(F)F)cc2F)nc(C(=O)O)c1Cl`
0 to 29%

Name the recorded pest or weed control at 140 g/ha of the compound listed here: `COC(=O)c1nc(-c2ccc(I)cc2)nc(N)c1OC`
0 to 29%

Name the recorded pest or weed control at 140 g/ha of the compound listed here: `COC(=O)c1nc(-c2ccc(C#N)cc2F)cc(N)c1Cl`
95 to 100%

Name the recorded pest or weed control at 140 g/ha of the compound listed here: `C#Cc1ccc(-c2nc(N)c(OC)c(C(=O)OC)n2)c(F)c1F`
0 to 29%

Name the recorded pest or weed control at 140 g/ha of the compound listed here: `COc1c(N)nc(-c2ccc(I)c(F)c2F)nc1C(=O)O`
95 to 100%

Name the recorded pest or weed control at 140 g/ha of the compound listed here: `Nc1c(F)c(-c2ccc(Br)c(F)c2F)nc(C(=O)O)c1Cl`
95 to 100%

Name the recorded pest or weed control at 140 g/ha of the compound listed here: `Nc1c(F)c(-c2ccc(I)cc2)nc(C(=O)O)c1Cl`
95 to 100%

Name the recorded pest or weed control at 140 g/ha of the compound listed here: `Nc1c(F)c(-c2ccc(OC(F)F)c(F)c2F)nc(C(=O)O)c1Cl`
0 to 29%

Name the recorded pest or weed control at 140 g/ha of the compound listed here: `Nc1cc(-c2ccc(Br)cc2)nc(C(=O)O)c1Cl`
95 to 100%

Name the recorded pest or weed control at 140 g/ha of the compound listed here: `COC(=O)c1nc(-c2ccc(I)cc2F)c(F)c(N)c1Cl`
0 to 29%

Name the recorded pest or weed control at 140 g/ha of the compound listed here: `COC(=O)c1nc(-c2ccc(I)cc2)c(F)c(N)c1Cl`
95 to 100%

Name the recorded pest or weed control at 140 g/ha of the compound listed here: `COC(=O)c1nc(-c2ccc(C(F)(F)F)c(F)c2F)nc(N)c1OC`
75 to 84%

###

System: Key Broadleaf Weed and Crop Species
Experimental protocol: Post-emergent Test II herbicidal activity (Table 5)
Type: in vivo
Details: post-emergence, 336 h; BRSNN: oilseed-rape, canola (Brassica napus); application rate 70 g ai/ha; 14 days after application; read-out: Visual Growth Reduction (%) 14 Days After Application, BRSNN
Listed below: pest or weed control at 70 g/ha values for each entry.

{"columns": ["Test smiles", "Experimental target", "pest or weed control at 70 g/ha"],
 "data": [
  ["COc1c(N)nc(-c2ccc(I)cc2F)nc1C(=O)O", "Key Broadleaf Weed and Crop Species", "85 to 94%"],
  ["Cc1ccc(-c2nc(C(=O)O)c(Cl)c(N)c2F)cc1F", "Key Broadleaf Weed and Crop Species", "95 to 100%"],
  ["COC(=O)c1nc(-c2ccc(C#N)c(F)c2)c(F)c(N)c1Cl", "Key Broadleaf Weed and Crop Species", "60 to 74%"],
  ["COC(=O)c1nc(-c2ccc(I)c(F)c2)c(F)c(N)c1Cl", "Key Broadleaf Weed and Crop Species", "95 to 100%"],
  ["COC(=O)c1nc(-c2ccc(C(F)F)cc2)c(F)c(N)c1Cl", "Key Broadleaf Weed and Crop Species", "85 to 94%"],
  ["C=Cc1c(C(=O)O)nc(-c2ccc(Cl)c(F)c2)c(F)c1N", "Key Broadleaf Weed and Crop Species", "95 to 100%"]
]}

Name the recorded pest or weed control at 70 g/ha of the compound listed here: `C#Cc1ccc(-c2nc(C(=O)OC)c(Cl)c(N)c2F)c(F)c1F`
0 to 29%

Name the recorded pest or weed control at 70 g/ha of the compound listed here: `COC(=O)c1nc(-c2ccccc2F)c(F)c(N)c1Cl`
75 to 84%
